Recorded pKd values for a group of binders are listed next.
molecular target: HTRA1, Q92743; assay: holdup assay; design: key: below the threshold = too weak to quantify, mostly under pKd 3.1 to 4; details: plain residues with an end cap or a label only (N-terminal biotin on a linker: ahx)
Sequence (Q92743 360-477): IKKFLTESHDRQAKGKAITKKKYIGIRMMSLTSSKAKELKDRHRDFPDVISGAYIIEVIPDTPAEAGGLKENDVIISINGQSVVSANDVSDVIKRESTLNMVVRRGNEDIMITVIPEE
RECORDED_METRIC: pKd

{"columns": ["BINDER", "OBSERVED_VALUE"],
 "data": [
  ["ADENEQVSAV [RAPGEF6, Q8TEU7]", 3.94],
  ["AKPQPVDSWV [ARVCF, O00192]", 4.6],
  ["KEYDDELTFF [USH1C, Q9Y6N9]", 4.3],
  ["KDECVIATEV [DLL1, O00548]", 4.04],
  ["HSATSVHTSV [MTMR1, Q13613]", 3.51],
  ["YNSFLSVTTV [PDZRN3, Q9UPQ7]", 4.3],
  ["VNENQKEYFF [CNTNAP4, Q9C0A0]", 4.72]
]}

Attribution: paper PMC9482650
